assay: yeast display, Sf9 membrane polyspecificity reagent, FACS + sequencing; frameworks hold sequencing errors

| chain.sequence | polyreactivity (PSR sort gate) |
| --- | --- |
| QVQLVESGGGLVQAGGSLRLSCAASGSILPYYAMGWSRQAPGKERELVATITDGTDTYYADSVKGRFTISRDNAKNTVYLQMNSLKPEDTAVYYCKADGYVYYMHEDYWGQGTQVTVSS | low polyreactivity |
| QVQLVESGGGLVQAGGSLRLCCAASGSNFRRNAMGLYRQAPGKERELVAAMSWTSTRTYYADSVKVRFTISRDNAKNTVYLQMNSLKPEDTAVYYCAADSNGGGFQLYSYDSGLYYWGQGTQVTVSS | high polyreactivity |
| QVQLVESGGGLVQAGGSLRLSCAASGSIFSFYTMGWYRQAPGKERELVASSTTYADSVKGRFTISRDNAKNTVYLQMNSLKPEDTAVYYCAAEYYSSITGWYYYWGQGTQVTVSS | low polyreactivity |
| QVQLVESGGGLVQAGGSLRLSCAASGRIFYGYVMGWYRQAPGKERELVAAITWSGSRTYYADSVKGRFTISRDNAKNTVYLQMNSLKPEDTAVYYCAARIPSDGYYYWGQGTQVTVSS | high polyreactivity |
| QVQLVESGGGLVQAGGSLRLSCAASGFTFRWYDMGWYRQAPGKERELVAAIDASDGSTYYADSVKGRFTISRDNAKNTVYLQMNSLKPEDTAVYYCAADSYYRYYWGQGTQVTVSS | high polyreactivity |
| QVQLVESGGGLVQAGGSLRLSCAASGLNFGVNAMGLYRQAPGKERELVAAISRSGGSTYYADSVKGRFTISRDNAKNSVYLQMNSLKPEDTAVYYCAAAAWDPKGSRYDYWGHGTQVTVSS | low polyreactivity |
| QVQLVESCGGLVQAGGSLRLSCAASGYTFSFNAMGWYRQAPGKESELVADINLSGGYTYYADSVKGRFTISRDNAKNTVYLQINSLKPEDTAVYYCAADLYDYWTEGYAFLFEYWGQGTQVTVSS | low polyreactivity |
| QVQRVESGGGLVQAGASLRLSCSASGSTFYSNAMGWYRQAPGKERELVAAISGSGGRTYYADSVKGRFTISRDNEKKTVYLQMNSLKPEETAVYFCAVERTRSMGYWGQGTQVTVSS | high polyreactivity |
| QVQLVESGGGLVQAGGSLRLSCAASGSTLAQYAMGWYRQAPGKETELVADISWSGGSTYYADSVKGRFTISRDNAKNTVYLQMNSLKPDDTAVYYCNAYAFDSVREEDYWGQGTQGTVSS | low polyreactivity |
| QVQLVESGGGLVQAGGSLRLSCAASGRISSLYAMGWYRQAPGKERELVAAISGTGGSAYYADSVKGRFTISRDNAKNTVYLQLNSLKPEDTAVYYCNAVRRWRTSQFDYWGQGTQVTVSS | low polyreactivity |
| QVQLVESGGGLVQAGGSLRLSCAASGRIFGLYTMGWYRQAPGKERELVAAITSRGGRTYYADSVKGRFTLSRDNAKNSVYLQMNSLKPEDTAVYYCAAGGYWSLKYDYWGQGTQVTVSS | high polyreactivity |
| QVQLVESGGGLVQAGGSLRLSCAASGSIFFPYAMGWYRKAPGKERGLVAAISWRGGITYYADSVKGRFTISRDNAKNTVYLQMNSLKPADTAVYYCAADGPYTGDGALDYWGQGTQVTVSS | high polyreactivity |
| QVQLVESGGGLVQAGGSLRLSCAASGGMGWYRQAPGKERELVATISSVGSTNYADSVKGRFTISRDNAKNTVYLQMNSLKPEDTAVYYCNDTGVQYFLYAYWGQGTQVTVSS | low polyreactivity |
| QVQLVESGGGLVQAGGSLRLSCAASGRTFFYNAMGWYRQAPGKERELVARITQSGVITYYADSVKGRFTISRDNAKNTVYLQMNSLKPEDTAVYYCNADDTYSPFRGVSYDYWGQGTQVTVSS | low polyreactivity |
| QVKLVESGGGLVQAGGSLRLSCASSGFTFFHYAKGWYRQAPGKERELVAAISWSGGSTYYADTVKGRFTISRDNAKNTVYLQMNSLKPEDTAVYYCAADGGSTAFDYWGQGTQVTVSS | low polyreactivity |
| QVQLVESGGGLVQAGGSLRLSCAASGSIFVSYAMGWYSQAPGKERELVAVISYSGVSTYYADSVKGRFTISRDNAKNTVYLQINSLKPEDTAVYYCATRQYGTRHILKYNYWGQGTQVTVSS | low polyreactivity |
| QVQLVESGGGLVQAGGSLRLSCAASGSIFKYYAMGWYRQAPGKERELVAAISTGGTTNYADSVKGRFTISRDNAKKTVYLQMNSLKPDDTAVYYCNRDFLVRSRYKYYYWGQGTQVTVSS | low polyreactivity |
| KVQLVESGGGLVQAGGRLRLSCAPSGSIFGTNTMGWYRQAPGTERELVAAIRLSDSSTYYADSVKGRFTISRDNAKNTVYLQMKSLKPEDTAVYDCAVDYRAYHYYRYDYWGQGTQVTVSS | low polyreactivity |
| QVQLVESGGGLVQAGGSLRLSCAASGFTISSYVMGWYRQAAGKEREVVAAISSSGARTYYADSVKGRFTISRDNAKNTVYLQMNSLKPEDTAVYYCAADNSPRPYDYWGQGTQVTVSS | high polyreactivity |
| QVQLVESGGGLVQAGGSLRLSCAASGSTFRYYTMGWYRQAPGKERELVAAISWSGGITYYADSVKGRFTISRDNAKNTVYLQMNSLKPEDTAVYYCAADWWAWRAYYYWGQGTQVTVSS | high polyreactivity |
| QVQLVESGGGLVQAGGSLRLSCAASGRIFYFNAMGWYRQAPGKERELVAAISGSGGDTYYADSVKGRFTISRDNAKNTVYLQMNSLNPEDTAVYYCAAEVYTWGQGTQVTVSS | low polyreactivity |

###

assay: yeast display, Sf9 membrane polyspecificity reagent, FACS + sequencing; frameworks hold sequencing errors

| chain.sequence | polyreactivity (PSR sort gate) |
| --- | --- |
| QVQIVESGGGLVQAGGSLRLSCAASGRTFSKYAMGWYRQSTWKERELVASITWSGGTTNYADSVKGRVTISRDNAKNTVYLQMNSLKPEDTAVFYCNAQIASDGFNPGKSDYWGLGTQVTVSS | low polyreactivity |
| QVQLVESGGGLVQAGGSLRLSCAASGSIFRGNAMGWYRQAPGKERELVAAITYNDGGTYYADSVKGRFTISRDNAKNTVYLQMNSLKPEDTAVYYCAAVGTGNKSILYDYWGQGTQVTVSS | low polyreactivity |
| QVQLVESGGGLVQAGGSLRLSCAATGSIFFDNAMGWYRQAPGHERELVAAITSSGGRTYYADSVKGRFTISRDNAKNTVYLQMNSLKPEDTAVYYCAASPKYTTGRYSGEYWGQGTQVTVSS | low polyreactivity |

###

test: yeast display, Sf9 membrane polyspecificity reagent, FACS + sequencing; frameworks hold sequencing errors

| chain.sequence | polyreactivity (PSR sort gate) |
| --- | --- |
| QVQLVESGGGLVQAGGSLRLSCAASGSTLDIYAMGWYRQAPGKERELVAAITSGGSTNYADSVKGRFTISRDNAKTTVYLQLNSLKPEDTAVYSCNARYFRGYDYWGQGTQVSVSS | high polyreactivity |
| QVHLVESGGGLVQAGGSLRLSCAASGSIFGRYAMGWYRQAPGKERELVANITSGDSTNYADSVKGRFTISRDNAKNTVYLQMNSLKPEDTAVYYCAAYRIGQYDYWGQGTQVTVSS | high polyreactivity |
| QVQLVESGGGLVQAGGSLRLSCAASGSIFYSNAMGWYRQAPGKEREFVAAISAGGGSTYYADSVKGRFTISRDHSKNTVYFQMNSLKPEDTAVYYCAKGPLPRAGVKFDYWGQGTQVTVSS | low polyreactivity |
| QVQRVESGGGLVQAGGSLRLSCPASGSTLYGYAMGWYRPSPGKERELVAGITRGGSTSYADSEKGRFTISRDNAKNTVYLQMNSLKPEDTAVYYCAARSYPGSPVRYDYWGQGTQVTVSS | high polyreactivity |
| QVQLVESGGGLVQAGGSLRLSCAASGIIFDRYAMGWYRQAPGKERELVAAITYGGGSTYYADSVKGRFTISRDNAKNTVYLQMNSLKPEDTAVYYCAAVSTWFYQYYYWGQGTQVTVSS | high polyreactivity |
| QVQLVESGGGLVQAGGSLRLSCAASGFTFTGNVMGWYRQAPGKERELVAAISSRGVSTYYADSVKGRFTISRDNAKNTVYLQMNSLKPEDTAVYYCAVSRIVDFGQKMYYWGQGTQVTVSS | high polyreactivity |
| QVQLVESGGGLVQAGGSLRLSCAASGGTFSGYTMGWYRQAPGKEWELVAAITRSGSSTYYADSVKGRFTISRDNAKNTVYLQMNSLKPEDTAVYYGAATYGSGVYKYDYWGQGTQVTVSS | high polyreactivity |
| QVQLQESGGGPVLAGCSLRLSCAASGTIFVRLDMGWYRQAPGKEREFVATIGSGSSTYYADSVKGSFTISRDNVKNTVYLQMNSLKQEDTAVYYCAVSAAEQSRHYYWDQGTQVTVSS | low polyreactivity |
| QVQLVESGGGLVQAGGSLRLSCAASGSTFRYYAMGWYRQAPGKERELVAAIRSGGGTYYADSVKGRFTISRDNAKTTVYLQMNSLKPEDTAVYYCAARSYSRRVSYYYWGQGTQVTVSS | high polyreactivity |
| QVQLEESGGGLDQAGGILRLSFAASGSTIGGYAMGWYSQATGNERELVAAITRSGGRTYYADSVKGRFTISRDNGKNTVYLQMNSLKPEDTAVYYCATLVTNGRYDSWGQGTQVTVSS | high polyreactivity |
| QVQLVESGGGLVQAGGSLRLSCAASGITFRWYAMGWYRPAPGKEWELVAAMNSRGTSTYYADSVKGRFTISRDNAKNTVYLQMNSLKPEDTSVYYCAATYLYIHGGFRPQYDYWGQGTQVTVSS | high polyreactivity |
